Provide the reported IC50 of each item.
# target_or_test_system: human NaV 1.8 channels stably expressed in HEK 293 cells (Homo sapiens (Human), UniProt Q9Y5Y9)
# Sequence (Q9Y5Y9 whole entry): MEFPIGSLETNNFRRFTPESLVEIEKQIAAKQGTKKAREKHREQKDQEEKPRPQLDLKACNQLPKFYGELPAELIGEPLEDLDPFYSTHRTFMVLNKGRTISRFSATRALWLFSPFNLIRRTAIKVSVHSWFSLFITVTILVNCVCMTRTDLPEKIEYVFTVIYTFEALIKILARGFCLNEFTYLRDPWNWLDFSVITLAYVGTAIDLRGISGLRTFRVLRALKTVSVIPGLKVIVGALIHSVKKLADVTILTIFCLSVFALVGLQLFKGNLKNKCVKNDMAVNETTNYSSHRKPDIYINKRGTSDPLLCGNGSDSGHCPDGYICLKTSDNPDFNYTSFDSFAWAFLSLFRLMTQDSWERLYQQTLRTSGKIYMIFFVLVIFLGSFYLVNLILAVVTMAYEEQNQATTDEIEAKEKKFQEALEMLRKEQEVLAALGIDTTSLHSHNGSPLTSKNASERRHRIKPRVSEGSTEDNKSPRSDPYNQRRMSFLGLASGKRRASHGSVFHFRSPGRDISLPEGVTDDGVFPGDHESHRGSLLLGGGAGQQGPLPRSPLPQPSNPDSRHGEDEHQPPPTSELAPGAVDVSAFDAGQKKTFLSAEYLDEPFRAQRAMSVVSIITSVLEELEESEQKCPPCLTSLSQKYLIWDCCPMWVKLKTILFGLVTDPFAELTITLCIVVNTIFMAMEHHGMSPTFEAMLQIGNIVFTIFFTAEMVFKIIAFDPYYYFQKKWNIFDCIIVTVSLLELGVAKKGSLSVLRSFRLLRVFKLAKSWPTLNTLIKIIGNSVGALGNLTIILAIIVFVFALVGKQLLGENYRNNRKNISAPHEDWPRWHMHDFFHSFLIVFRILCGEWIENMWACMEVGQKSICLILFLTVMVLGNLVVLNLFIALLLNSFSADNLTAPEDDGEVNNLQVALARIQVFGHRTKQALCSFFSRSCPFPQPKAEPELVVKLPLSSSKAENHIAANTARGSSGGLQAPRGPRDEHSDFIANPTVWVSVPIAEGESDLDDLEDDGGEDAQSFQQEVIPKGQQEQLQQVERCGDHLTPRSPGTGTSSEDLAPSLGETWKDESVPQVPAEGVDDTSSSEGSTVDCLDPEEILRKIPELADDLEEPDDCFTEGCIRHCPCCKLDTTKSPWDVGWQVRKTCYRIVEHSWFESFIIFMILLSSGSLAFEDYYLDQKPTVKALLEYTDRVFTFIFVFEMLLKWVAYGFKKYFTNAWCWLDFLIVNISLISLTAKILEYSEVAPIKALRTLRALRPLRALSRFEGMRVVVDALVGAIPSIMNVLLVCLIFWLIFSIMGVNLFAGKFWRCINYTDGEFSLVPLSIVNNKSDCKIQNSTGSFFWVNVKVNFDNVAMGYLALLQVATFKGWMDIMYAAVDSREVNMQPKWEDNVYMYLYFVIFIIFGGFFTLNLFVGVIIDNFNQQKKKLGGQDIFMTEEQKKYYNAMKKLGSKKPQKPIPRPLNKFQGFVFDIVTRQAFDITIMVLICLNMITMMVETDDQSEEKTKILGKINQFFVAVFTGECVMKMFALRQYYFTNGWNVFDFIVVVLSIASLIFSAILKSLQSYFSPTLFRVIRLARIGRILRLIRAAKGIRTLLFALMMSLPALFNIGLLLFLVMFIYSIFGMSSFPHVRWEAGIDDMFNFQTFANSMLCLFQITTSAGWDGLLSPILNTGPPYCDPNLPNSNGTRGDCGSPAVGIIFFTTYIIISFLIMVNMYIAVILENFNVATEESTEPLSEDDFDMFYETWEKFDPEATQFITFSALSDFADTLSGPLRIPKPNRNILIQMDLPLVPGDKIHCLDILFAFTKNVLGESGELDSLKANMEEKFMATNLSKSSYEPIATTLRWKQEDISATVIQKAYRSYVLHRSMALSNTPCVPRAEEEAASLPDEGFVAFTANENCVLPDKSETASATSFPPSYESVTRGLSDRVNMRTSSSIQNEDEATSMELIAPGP
# assay_comment: Nav1.8 Qube automated patch-clamp assay
# Type: cell-based
# run_parameters: human NaV1.8 in HEK 293 cells, whole-cell voltage clamp, room temperature; read-out: IC50 values (nM) for Examples in the Nav1.8 Qube Assay
Value expressed in nM; do not type the unit.

Task: # query: IC50 of entry C[C@@H]1C(=O)NCCN1C(=O)NC(c1ccc(OCC(F)(F)F)nc1)c1ccc(F)c(Cl)c1F (single isomer, unassigned) [Example 1B]
Output: 30.9

Task: Query C[C@@H]1C(=O)NCCN1C(=O)NC(c1ccc(F)c(Cl)c1)c1ccc2nc(C(F)(F)F)cn2c1 (single isomer, unassigned) [Example 11A] next
Output: 67.4

Task: Query C[C@@H]1C(=O)NCCN1C(=O)NC(c1ccc(OC(F)(F)F)c(Cl)c1)c1coc(C(F)(F)F)n1 (single isomer, unassigned) [Example 64B] next
Output: 3.5

Task: Query C[C@@H]1C(=O)NCCN1C(=O)NC(c1cnc(C(F)(F)F)nc1)c1ccc(Cl)c(Cl)c1 (single isomer, unassigned) [Example 28B] next
Output: 43.7

Task: Query O=C1NCCN(C(=O)NC(c2cnc(C(F)(F)F)c(F)c2)c2ccc(F)c(Cl)c2F)C1C1CC1 (single isomer, unassigned) [Example 37B] next
Output: 188

Task: Query C[C@@H]1C(=O)NCCN1C(=O)NC(c1ccc(OC(F)(F)F)c(F)c1)c1ccc(C#N)c(C(F)(F)F)n1 (single isomer, unassigned) [Example 61A] next
Output: 1.02

Task: Query C[C@@H]1C(=O)NCCN1C(=O)NC(c1cnc(OCC(F)(F)F)nc1)c1ccc(F)c(Cl)c1F (single isomer, unassigned) [Example 12A] next
Output: 9.24

Task: Query C[C@@H]1C(=O)NCCN1C(=O)NC(c1ccc(OC(F)(F)F)c(F)c1)c1ccc(F)c(C(F)(F)F)n1 (single isomer, unassigned) [Example 56A] next
Output: 11.7

Task: Query C[C@@H]1C(=O)NCCN1C(=O)NC(c1ccc(OCC(F)(F)F)cc1)c1ccc(F)c(C(F)(F)F)n1 (single isomer, unassigned) [Example 57A] next
Output: 6.79

Task: Query C[C@@H]1C(=O)NCCN1C(=O)NC(c1ccc(F)c(Cl)c1)c1cc(C(F)(F)F)nn1C (single isomer, unassigned) [Example 86B] next
Output: 154

Task: Query C[C@@H]1C(=O)NCCN1C(=O)NC(c1cccc(OC(F)(F)F)c1)c1ccc(F)c(C(F)(F)F)n1 (single isomer, unassigned) [Example 58A] next
Output: 3.6

Task: Query C[C@@H]1C(=O)NCCN1C(=O)NC(c1ccc(F)c(C(F)(F)F)n1)c1ccc(F)c(Cl)c1F (single isomer, unassigned) [Example 60A] next
Output: 2.19

###

# target_or_test_system: human NaV 1.8 channels stably expressed in HEK 293 cells (Homo sapiens (Human), UniProt Q9Y5Y9)
# assay_comment: Nav1.8 Qube automated patch-clamp assay
# Assay type: cell-based
# run_parameters: human NaV1.8 in HEK 293 cells, whole-cell voltage clamp, room temperature; read-out: IC50 values (nM) for Examples in the Nav1.8 Qube Assay
Threshold check on IC50: strictly below 8 nM is true (1); on or above 8 nM is false (0).

Task: Answer whether the molecule C[C@@H]1C(=O)NCCN1C(=O)NC(c1ccc(C(F)(F)F)nc1)c1ccc(F)c(Cl)c1 (single isomer, unassigned) [Example 16B] has IC50 strictly less than 8 nM
Output: false (0)

Task: Query C[C@@H]1C(=O)NCCN1C(=O)NC(c1ccnc(OCC(F)(F)F)c1)c1ccc(F)c(Cl)c1 (single isomer, unassigned) [Example 71B] next
Output: true (1)

Task: Query C[C@@H]1C(=O)NCCN1C(=O)NC(c1cnc(C(F)(F)F)nc1)c1ccc(F)c(Cl)c1F (single isomer, unassigned) [Example 30B] next
Output: false (0)

Task: Query C[C@@H]1C(=O)NCCN1C(=O)NC(c1cnc(OCC(F)(F)F)nc1)c1ccc(F)c(Cl)c1F (single isomer, unassigned) [Example 12B] next
Output: false (0)

Task: Query C[C@@H]1C(=O)NCCN1C(=O)NC(c1ccc(OCC(F)(F)F)nc1)c1ccc(F)c(Cl)c1F (single isomer, unassigned) [Example 1A] next
Output: true (1)

Task: Query C[C@@H]1C(=O)NCCN1C(=O)NC(c1cnc(C(F)(F)F)c(Cl)c1)c1ccc(F)c(C(F)(F)F)n1 (single isomer, unassigned) [Example 82B] next
Output: true (1)

Task: Query C[C@@H]1C(=O)NCCN1C(=O)NC(c1ccc(C(F)(F)F)nc1)c1ccc(Cl)c(Cl)c1F (single isomer, unassigned) [Example 29A] next
Output: false (0)

Task: Query C[C@@H]1C(=O)NCCN1C(=O)NC(c1ccc(Cl)cc1)c1ccc(OCC(F)(F)F)nc1 (single isomer, unassigned) [Example 5A] next
Output: false (0)

Task: Query C[C@@H]1C(=O)NCCN1C(=O)NC(c1ccc(F)c(Cl)c1)c1ccc(F)c(OCC(F)(F)F)n1 (single isomer, unassigned) [Example 70B] next
Output: true (1)

Task: Query C[C@@H]1C(=O)NCCN1C(=O)NC(c1cnc(C(F)(F)F)s1)c1ccc(F)c(Cl)c1F (single isomer, unassigned) [Example 62B] next
Output: true (1)

Task: Query C[C@@H]1C(=O)NCCN1C(=O)NC(c1ccc(C(F)(F)F)nc1)c1ccc(F)c(OC(F)(F)F)c1 (single isomer, unassigned) [Example 19B] next
Output: false (0)

Task: Query O=C1NCCN(C(=O)NC(c2ccc(C(F)(F)F)nc2)c2ccc(F)c(Cl)c2F)C1C1CC1 (single isomer, unassigned) [Example 38A] next
Output: false (0)

Task: Query C[C@@H]1C(=O)NCCN1C(=O)NC(c1ccc(Cl)c(C#N)c1)c1ccc(F)c(C(F)(F)F)n1 (single isomer, unassigned) [Example 52B] next
Output: false (0)

Task: Query C[C@@H]1C(=O)NCCN1C(=O)NC(c1ccc(F)c(Cl)c1)c1cnc(C(F)(F)F)c(Cl)c1 (single isomer, unassigned) [Example 26B] next
Output: true (1)

Task: Query O=C1NCCN(C(=O)NC(c2cnc(C(F)(F)F)c(F)c2)c2ccc(F)c(Cl)c2F)C1C1CC1 (single isomer, unassigned) [Example 37A] next
Output: true (1)

Task: Query C[C@@H]1C(=O)NCCN1C(=O)NC(c1ccc(Cl)cc1)c1ccc(OCC(F)(F)F)nc1 (single isomer, unassigned) [Example 5B] next
Output: false (0)

Task: Query C[C@@H]1C(=O)NCCN1C(=O)NC(c1ccc(OC(F)(F)F)nc1)c1ccc(F)c(Cl)c1F (single isomer, unassigned) [Example 4A] next
Output: true (1)

Task: Query C[C@@H]1C(=O)NCCN1C(=O)NC(c1ccc(OC(F)F)nc1)c1ccc(F)c(Cl)c1 (single isomer, unassigned) [Example 73A] next
Output: true (1)

Task: Query C[C@@H]1C(=O)NCCN1C(=O)NC(c1ccc(OC(F)(F)F)cc1)c1cnc(C(F)(F)F)c(Cl)c1 (single isomer, unassigned) [Example 20B] next
Output: true (1)

Task: Query C[C@@H]1C(=O)NCCN1C(=O)NC(c1ccc(C(F)F)nc1)c1ccc(F)c(Cl)c1F (single isomer, unassigned) [Example 32B] next
Output: false (0)

Task: Query CCC1C(=O)NCCN1C(=O)NC(c1ccc(C(F)(F)F)nc1)c1ccc(F)c(Cl)c1F (single isomer, unassigned) [Example 40A] next
Output: false (0)

Task: Query O=C1CN(C(=O)NC(c2ccc(Cl)c(F)c2)c2ccc(F)c(C(F)(F)F)n2)CCN1 (single isomer, unassigned) [Example 54B] next
Output: true (1)

Task: Query C[C@@H]1C(=O)NCCN1C(=O)NC(c1cnc(C(F)(F)F)c(Cl)c1)c1csc(C(F)(F)F)n1 (single isomer, unassigned) [Example 84A] next
Output: false (0)

Source listed as patent US20240246932A1.
